Data provenance: the supplement of paper PMC6992640

Documented cell viability across a set of molecules
Test system: HCI01 (cells of a triple-negative basal-like breast cancer xenograft);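 further: PDX cells carrying CMV promoter-driven luciferase, viability read as total photon flux per second by IVIS imaging following D-luciferin, vehicle control 0.1% DMSO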
Measurement Protocol: cell viability (% of vehicle); higher = less cytotoxic
Experimental Setup: 10 µM; 72 h
Reported Property: cell viability

INSERT INTO assay_data (molecule, reported_property, value_reported) VALUES
  ('Nc1ccc(C(=O)[O-])c(O)c1.O.O.[Na+] [Sodium 4-Aminosalicylate]', 'cell viability', 138),
  ('CC(S)C(=O)NCC(=O)O (centres undefined) [Tiopronin (Thiola)]', 'cell viability', 104),
  ('O=C(NS(=O)(=O)c1ccc(Br)s1)c1ccc(Cl)cc1Cl [Tasisulam]', 'cell viability', 183),
  ('CCCC1CC(C(=O)NC(C(C)Cl)C2OC(SC)C(O)C(O)C2O)N(C)C1 (centres undefined) [Clindamycin]', 'cell viability', 142),
  ('Oc1c(Br)cc(Br)c2cccnc12 [Broxyquinoline]', 'cell viability', 81.5),
  ('CC/C(=C(\c1ccccc1)c1ccc(OCCN(C)C)cc1)c1ccccc1 [Tamoxifen]', 'cell viability', 39.1),
  ('CCC(=O)OCC(=O)C1(OC(=O)CC)C(C)CC2C3CCC4=CC(=O)C=CC4(C)C3(F)C(O)CC21C (centres undefined) [Betamethasone Dipropionate]', 'cell viability', 126),
  ('CN(C)CCC=C1c2ccccc2CCc2ccccc21.Cl [Amitriptyline HCl]', 'cell viability', 103),
  ('O=S(=O)([O-])CCS.[Na+] [Mesna]', 'cell viability', 112);
